Attribution: paper PMC8848500

targetEntity: human neutrophil elastase (HNE) (Homo sapiens, UniProt P08246)
Sequence (P08246 30-267): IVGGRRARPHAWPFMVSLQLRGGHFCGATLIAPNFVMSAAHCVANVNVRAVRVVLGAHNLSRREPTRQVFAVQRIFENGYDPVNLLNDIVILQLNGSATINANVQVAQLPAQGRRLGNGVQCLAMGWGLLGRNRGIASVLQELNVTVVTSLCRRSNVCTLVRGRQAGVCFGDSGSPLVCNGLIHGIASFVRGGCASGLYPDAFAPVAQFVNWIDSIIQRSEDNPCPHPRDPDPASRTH
assayProcedure: HNE inhibition assay
Entries and their pIC50 values follow.
// pIC50 here means minus log10 of the molar concentration (mol/L)

>>> print(df.to_string())
                        itemsmiles  measuredattribute  result
0  N#Cc1nn(C(=O)c2ccccc2)c2ncccc12              pIC50    6.85

In the following, a different compound is considered.
Which pIC50 is reported for this compound? CC(=O)n1nc(NC(=O)c2cccc(C)c2)c2cccnc21 4.60

* * *

Entries and their pIC50 values follow.
targetEntity: human neutrophil elastase (HNE) (Homo sapiens, UniProt P08246)
assayProcedure: HNE inhibition assay
pIC50: −log10 of the molar value.

Completed entries (count: 2):
>>> print(df.to_string())
                                   compound                              targetentity  result
0  COc1cccc(CNC(=O)c2cnc3cc(C)nn3c2C)c1 [Compound 22d]  human neutrophil elastase (HNE) (Homo sapiens, UniProt P08246)  < 4.30
1  COc1cccc(NC(=O)c2cnc3cc(C)nn3c2C)c1 [Compound 22a]  human neutrophil elastase (HNE) (Homo sapiens, UniProt P08246)  < 4.30

In the following, a different compound is considered.
Which pIC50 is reported for this compound? COc1cccc(CNC(=O)c2cnc3c(Cl)c(C(C)(C)C)nn3c2C)c1 [Compound 22f] < 4.30
